I'd appreciate it if you could supply activity at 0.3 µM values for the items below.
experimental-system: γ-secretase (Homo sapiens)
method: Aβ secretion by C99 cells (HEK293 stably expressing APP-C99), γ-secretase inhibitory effect, Aβ ELISA of culture supernatant
Assay type: cell-based
test-conditions: HEK293, 24 h, Example 9; exposure 0.3 μmol/L; read-out: Aβ (1-42) secretion rate of C99 cells
Numbers only, in %.

Consider the worked cases shown below.
molecule	experimental-system	unit-tag	activity at 0.3 µM
CSCCC(NC(=O)C(NC(=O)C(CC(C)C)CC(O)C(NC(=O)OC(C)(C)C)C(C)O)C(C)C)C(=O)NCc1ccccc1 (stereo not shown)	γ-secretase (Homo sapiens)	%	43
CCCCNC(=O)C(CCSC)NC(=O)C(NC(=O)C(CC(C)C)CC(O)C(NC(=O)OC(C)(C)C)C(C)O)C(C)C (stereo not shown)	γ-secretase (Homo sapiens)	%	33
CSCCC(NC(=O)C(NC(=O)C(CC(C)C)CC(O)C(NC(=O)OC(C)(C)C)C(C)O)C(C)C)C(=O)NCc1ccc(F)cc1 (stereo not shown)	γ-secretase (Homo sapiens)	%	49

Field: next molecule
According to the records, this molecule CSCCC(NC(=O)C(NC(=O)C(CC(C)C)CC(O)C(NC(=O)OC(C)(C)C)C(C)O)C(C)C)C(=O)NC(C)c1ccccc1 (stereo not shown) displays activity at 0.3 µM of 33

====

I'd appreciate it if you could supply activity at 3 µM values for the items below.
experimental-system: γ-secretase (Homo sapiens)
method: Aβ secretion by C99 cells (HEK293 stably expressing APP-C99), γ-secretase inhibitory effect, Aβ ELISA of culture supernatant
Type: cell-based
test-conditions: HEK293, 24 h, Example 8; exposure 3 μmol/L, 24 h; read-out: Aβ (1-40) secretion rate of C99 cells
One number for each entry, in %.

molecule	unit-tag	recorded-measurement
CSCCC(NC(=O)C(NC(=O)C(CC(C)C)CC(O)C(NC(=O)OC(C)(C)C)C(C)O)C(C)C)C(=O)NCc1ccccc1 (stereo not shown) [TLVM-5]	%	4

Below are 3 molecules. Give each one its activity at 3 µM.
1. CSCCC(NC(=O)C(NC(=O)C(CC(C)C)CC(O)C(NC(=O)OC(C)(C)C)C(C)O)C(C)C)C(=O)NC(C)c1ccccc1 (stereo not shown) [TLVM-8]
2. CCCCNC(=O)C(CCSC)NC(=O)C(NC(=O)C(CC(C)C)CC(O)C(NC(=O)OC(C)(C)C)C(C)O)C(C)C (stereo not shown) [TLVM-7]
3. CSCCC(NC(=O)C(NC(=O)C(CC(C)C)CC(O)C(NC(=O)OC(C)(C)C)C(C)O)C(C)C)C(=O)NCc1ccc(F)cc1 (stereo not shown) [TLVM-9]

[2, 1, 5]

====

experimental-system: γ-secretase (Homo sapiens)
method: Substrate specificity: FLAG-Aβ secretion by HEK293 cells transfected with FLAG APP C99, anti-FLAG immunoprecipitation/western blot
Format: cell-based
test-conditions: HEK293; 0.2 μmol/L, 24 h; FLAG APP C99; negative control = 100%; read-out: (i) Aβ secretion rate of HEK293 cells
measured-property: activity at 0.2 µM (%)
One number for each entry, in %.

compound	experimental-system	activity at 0.2 µM [%]
CSCCC(NC(=O)C(NC(=O)C(CC(C)C)CC(O)C(NC(=O)OC(C)(C)C)C(C)O)C(C)C)C(=O)NCc1ccc(F)cc1 (stereo not shown) [TLVM-9]	γ-secretase (Homo sapiens)	43

Below are 3 compounds. Give each one its activity at 0.2 µM.
1. CSCCC(NC(=O)C(NC(=O)C(CC(C)C)CC(O)C(NC(=O)OC(C)(C)C)C(C)O)C(C)C)C(=O)NC(C)c1ccccc1 (stereo not shown) [TLVM-8]
2. CCCCNC(=O)C(CCSC)NC(=O)C(NC(=O)C(CC(C)C)CC(O)C(NC(=O)OC(C)(C)C)C(C)O)C(C)C (stereo not shown) [TLVM-7]
3. CSCCC(NC(=O)C(NC(=O)C(CC(C)C)CC(O)C(NC(=O)OC(C)(C)C)C(C)O)C(C)C)C(=O)NCc1ccccc1 (stereo not shown) [TLVM-5]

[32, 36, 41]

====

experimental-system: γ-secretase (Homo sapiens)
method: Aβ secretion by C99 cells (HEK293 stably expressing APP-C99), γ-secretase inhibitory effect, Aβ ELISA of culture supernatant
Type: cell-based
test-conditions: HEK293, 24 h, Example 8; exposure 10 μmol/L, 24 h; read-out: Aβ [(1-40) + (1-42)] secretion rate of C99 cells
I'd appreciate it if you could supply activity at 10 µM values for the items below.
Give bare numbers, in %.

molecule	activity at 10 µM [%]
CSCCC(NC(=O)C(NC(=O)C(CC(C)C)CC(O)C(NC(=O)OC(C)(C)C)C(C)O)C(C)C)C(=O)NCc1ccccc1 (stereo not shown) [TLVM-5]	6

Below are 3 molecules. Give each one its activity at 10 µM.
1. CCCCNC(=O)C(CCSC)NC(=O)C(NC(=O)C(CC(C)C)CC(O)C(NC(=O)OC(C)(C)C)C(C)O)C(C)C (stereo not shown) [TLVM-7]
2. CSCCC(NC(=O)C(NC(=O)C(CC(C)C)CC(O)C(NC(=O)OC(C)(C)C)C(C)O)C(C)C)C(=O)NC(C)c1ccccc1 (stereo not shown) [TLVM-8]
3. CSCCC(NC(=O)C(NC(=O)C(CC(C)C)CC(O)C(NC(=O)OC(C)(C)C)C(C)O)C(C)C)C(=O)NCc1ccc(F)cc1 (stereo not shown) [TLVM-9]

2
1
3
